Taken from patent US20160355475A1.

Target: HDAC6 human recombinant (Homo sapiens)
Construct: purchased Calbiochem 382180
Sequence (Q9UBN7 1-1215): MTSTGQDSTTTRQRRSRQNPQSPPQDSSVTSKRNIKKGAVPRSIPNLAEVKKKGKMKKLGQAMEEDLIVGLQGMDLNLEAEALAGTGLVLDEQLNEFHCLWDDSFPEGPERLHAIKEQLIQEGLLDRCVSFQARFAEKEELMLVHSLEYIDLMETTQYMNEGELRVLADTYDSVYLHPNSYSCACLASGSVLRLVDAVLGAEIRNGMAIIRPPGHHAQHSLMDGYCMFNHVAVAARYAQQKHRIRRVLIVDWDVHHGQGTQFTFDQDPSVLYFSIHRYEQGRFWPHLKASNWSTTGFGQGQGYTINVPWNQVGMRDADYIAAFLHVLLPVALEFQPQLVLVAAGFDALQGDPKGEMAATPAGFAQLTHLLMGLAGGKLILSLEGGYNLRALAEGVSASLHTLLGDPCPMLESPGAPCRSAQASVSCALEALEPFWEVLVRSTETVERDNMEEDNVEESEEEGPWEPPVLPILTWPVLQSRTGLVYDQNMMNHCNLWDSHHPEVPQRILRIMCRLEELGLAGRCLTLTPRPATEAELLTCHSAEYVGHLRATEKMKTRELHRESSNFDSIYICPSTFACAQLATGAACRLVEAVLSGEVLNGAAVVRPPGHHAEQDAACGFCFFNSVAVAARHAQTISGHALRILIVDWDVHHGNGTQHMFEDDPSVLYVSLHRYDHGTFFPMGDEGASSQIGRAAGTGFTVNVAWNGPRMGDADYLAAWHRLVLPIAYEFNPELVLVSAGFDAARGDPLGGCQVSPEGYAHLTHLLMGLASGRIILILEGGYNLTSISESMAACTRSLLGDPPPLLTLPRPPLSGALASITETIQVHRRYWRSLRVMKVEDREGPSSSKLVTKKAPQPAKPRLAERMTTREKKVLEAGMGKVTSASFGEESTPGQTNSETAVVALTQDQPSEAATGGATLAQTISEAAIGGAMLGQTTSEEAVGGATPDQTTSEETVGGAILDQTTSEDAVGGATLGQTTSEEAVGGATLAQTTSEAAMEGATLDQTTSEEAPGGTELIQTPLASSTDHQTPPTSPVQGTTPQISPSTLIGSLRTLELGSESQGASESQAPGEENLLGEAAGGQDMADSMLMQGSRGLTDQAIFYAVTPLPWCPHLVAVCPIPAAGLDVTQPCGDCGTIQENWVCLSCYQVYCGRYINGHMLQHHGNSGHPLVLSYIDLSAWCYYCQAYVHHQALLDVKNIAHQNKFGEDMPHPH
Assay: HDAC6 enzyme activity inhibition (fluorimetric, in vitro)
Type: biochemical
Conditions: 37° C., 60 minutes; tested at 0.1, 1, 10, 100 and 1000 nM
property_name: IC50 (nM)

{"columns": ["compound", "IC50 [nM]"],
 "data": [
  ["Cc1c(Cc2ccc(C(=O)NO)cc2)c2ccccc2n1CC1CCN(CC2(F)CCN(C(=O)OC(C)(C)C)CC2)CC1 [Compound 610]", 79],
  ["Cc1c(Cc2ccc(C(=O)NO)cc2)c2ccccc2n1CC1CCN(CC2(F)CCN(S(C)(=O)=O)CC2)CC1 [Compound 696]", 123],
  ["CC(C)(F)CN1CCC(Cn2c(-c3ccncc3)c(Cc3ccc(C(=O)NO)cc3)c3ccccc32)CC1 [Compound 624]", 107],
  ["CCCc1c(Cc2ccc(C(=O)NO)cc2)c2ccccc2n1CC1CCN(CC(C)(C)O)CC1 [Compound 601]", 98],
  ["COC[C@@H]1CCCN1CCn1c(C)c(Cc2ccc(C(=O)NO)cc2)c2ccccc21 [Compound 200]", 8]
]}

I = Cc1c(Cc2ccc(C(=O)NO)cc2)c2ccccc2n1CC1CCN(Cc2ccccc2)CC1 [Compound 556]
II = Cc1c(Cc2ccc(C(=O)NO)cc2)c2ccccc2n1CC1CCN(CC2(F)CCN(CC(C)(C)O)CC2)CC1 [Compound 613]
Q. Compare I and II and name the one whose reported IC50 is smaller. Indicate which entry you chose by stating its label.
A. II
